Reference for the values: PubChem BioAssay (NCI)

- Tested on: HOP-92 NSCLC
- Assay: NCI tumour cell line growth inhibition, 48 h
Below, each entry is listed with its recorded TGI.

{"Smiles data": "COc1ccc(NC(=O)/C(Cc2nc3ccccc3[nH]c2=O)=N\\O)c(OC)c1", "TGI": "> 100 µM"}
{"Smiles data": "O=S(=O)(O)SC/C=C\\CSS(=O)(=O)O", "TGI": "> 100 µM"}
{"Smiles data": "Cc1cc(S(=O)(=O)n2ccnc2Oc2cccc(Cl)c2)c(SSc2cc(Cl)c(C)cc2S(=O)(=O)n2ccnc2Oc2cccc(Cl)c2)cc1Cl", "TGI": "> 100 µM"}

====

- Test system: HCT-15 colon
- Assay: NCI tumour cell line growth inhibition, 48 h

{"Compound": "CCOC(=O)N1C/C(=C/c2ccc(F)cc2)C(=O)/C(=C/c2ccc(F)cc2)C1", "Measurement target": "HCT-15 colon", "TGI": "3.02 µM"}
{"Compound": "O=C(Oc1ccc(S(=O)(=O)F)cc1F)c1ccccc1Cl", "Measurement target": "HCT-15 colon", "TGI": "> 100 µM"}
{"Compound": "CCCC1C(CC)C(NC)C(C#N)(C#N)C1(C#N)C#N (stereo unspecified)", "Measurement target": "HCT-15 colon", "TGI": "28.7 µM"}
{"Compound": "O=C(O)CNC(=O)C(CS)Cc1ccccc1 (stereo unspecified)", "Measurement target": "HCT-15 colon", "TGI": "> 25 µM"}
{"Compound": "CCOC(=O)C(=O)Nc1ccc(C)c(C)c1", "Measurement target": "HCT-15 colon", "TGI": "> 55.4 µM"}
{"Compound": "Cc1cc(O)c(C(=O)O)c2c1C(=O)c1c(O)c(OCC(O)C(O)C(O)C(O)CO)c(O)c(O)c1C2=O (stereo unspecified) (tested in a mixture with another compound)", "Measurement target": "HCT-15 colon", "TGI": "> 100 µM"}

====

Below, each entry is listed with its recorded TGI.
- Tested on: HT29 colon
- Assay: NCI tumour cell line growth inhibition, 48 h

{"Molecule": "CC1CC(C)CC(NC2=NCCO2)C1 (stereo not drawn)", "TGI": "> 100 µM"}
{"Molecule": "C=CC1(CC)/C(=N\\O)C(CC)(CC)C(=O)N1O (stereo not drawn)", "TGI": "> 100 µM"}
{"Molecule": "CC(C)(C)C(=O)N(C(=S)OCc1ccccn1)c1ccccc1", "TGI": "> 100 µM"}

====

- Tested on: KM12 colon
- Assay: NCI tumour cell line growth inhibition, 48 h
*1 amine or outer side, *2 acyl side, *3 side chain or, on linkers, in order; H or OH if unused. Where a SMILES comes first, the peptide text is derived from it. Bridges are numbered along the chain shown (N, C = ends). [ ]: non-standard residue; d: D form. Adda = CO[C@@H](Cc1ccccc1)[C@@H](C)/C=C(C)/C=C/[C@H](N[*:1])[C@H](C)C(=O)[*:2]; dAsp(3S-Me) = C[C@H](C(=O)[*:3])[C@@H](N[*:1])C(=O)[*:2]; d(γGlu) = O=C(O)[C@@H](CCC(=O)[*:2])N[*:1]; NMeDha = C=C(NC)C(=O)O
Below, each entry is listed with its recorded GI50.

{"Molecule": "CN1CCc2c(c3ccccc3c3ccccc23)C1", "GI50": "4.91 µM"}
{"Molecule": "CC(=O)[CH-]C(C)=O.CC(=O)[CH-]C(C)=O.CC(=O)[CH-]C(C)=O.[In+3]", "GI50": "> 100 µM"}
{"Molecule": "C=C1C(=O)N[C@H](C)C(=O)N[C@@H](CC(C)C)C(=O)N[C@@H](C(=O)O)[C@H](C)C(=O)N[C@@H](CCCN=C(N)N)C(=O)N[C@@H](/C=C/C(C)=C/[C@H](C)[C@H](Cc2ccccc2)OC)[C@H](C)C(=O)N[C@@H](C(=O)O)CCC(=O)N1C (R[Adda][d(γGlu)][NMeDha][dA]L[dAsp(3S-Me)]-OH; lactam N-7)", "GI50": "> 5 µM"}
{"Molecule": "CCOC(=O)[C@H]1O[C@@H]1C(=O)N[C@@H](CC(C)C)C(=O)NCCc1ccc(O)cc1", "GI50": "> 100 µM"}
{"Molecule": "Nc1nc2c(c3ncccc13)C(c1cccc(Br)c1)Cc1ncccc1-2 (stereo unspecified)", "GI50": "0.433 µM"}
{"Molecule": "COc1ccc2[nH]c(-c3ccccc3)c(/C=C(\\C#N)S(=O)(=O)c3ccccc3)c2c1", "GI50": "2.96 µM"}
